Tested on: SW-620 colon
protocol_description: NCI-60 one-dose screen, 48 h
experimental_parameters: 10 µM unless noted
The panel holds about 83,000 compounds, 20% with a hit somewhere; the sample as a whole holds those more often. Activity calls are given as the source filed them. Rule for the calls: active = growth percent below 10; inactive = the rest.
In this exercise, the only acceptable responses are active, inactive

1. COC(=O)CCCNc1c(-c2c(O)c(O)cc3c(O)c(-c4c(C)cc5c(-c6nc7ccccn7c6NCCCC(=O)OC)c(O)c(O)cc5c4O)c(C)cc23)nc2ccccn12 ... inactive

Challenge: Identify the outcome logged in this assay for the compound shown: `O=c1nc2c(-c3nc4ccccc4s3)n[nH]n2c2sc3c(c12)CCCC3`
Response given: inactive

Challenge: Moving on to the next compound: `C=CC(=O)Nc1cccc(Oc2nc(Nc3ccc(N4CCN(C)CC4)cc3)nc3ccsc23)c1`
Response given: active

Challenge: Next: `COc1ccc(C(=O)N2c3ccccc3Sc3ccccc32)c(F)c1`
Response given: inactive

Challenge: Now this one: `CS(=O)(=O)N1CCc2c(-c3cnc(N)nc3)nc(N3CCOCC3)nc21`
Response given: inactive

* * *

System: OVCAR-8 ovarian
protocol_description: NCI-60 one-dose screen, 48 h (100 = growth as untreated, 0 = no growth, -100 = all killed)
experimental_parameters: 10 µM unless noted
The panel holds about 83,000 compounds, 20% with a hit somewhere; the sample as a whole holds those more often.
growth values for the molecules below.
Return type: number; implicit unit %.

1) Cc1cc(N(CCNc2ccnc3cc(Cl)ccc23)Cc2ccc3c(c2)OCO3)nc(N2CCN(C)CC2)n1 ... 20.3
2) C=C1[C@@H](O)C[C@H]2C(C)(C)C[C@H](Cl)C[C@]2(C)[C@H]1C[C@H](O)[C@H]1CC(=O)NC1=O ... -18
3) CNC(=O)c1ccc(Nc2ncc(C(F)(F)F)c(NCc3nccnc3N(C)S(C)(=O)=O)n2)cc1 ... -0.118
4) CCCCn1c(C)nc2cc(Nc3nc(N4CCCCC4)nc4nc[nH]c34)ccc21 ... 30.1

Challenge: What reported growth corresponds to O=C1OCC2=C1C(c1cccc(F)c1)c1cc3c(cc1N2CCO)OCCO3 (centres undefined) on OVCAR-8 ovarian?
Response given: 24.4

Challenge: Another molecule to look at: `O=C(Nc1ccc(Nc2ncnc3sc4c(c23)CCOC4)cc1)Nc1ccc(Cl)c(C(F)(F)F)c1`
Response given: 109

Challenge: Similarly, `COc1cc(C(=O)NNC(=O)c2ccc(NC(=O)CCl)cc2)cc(OC)c1OC` ?
Response given: 82.2

Challenge: Same read-out for `Cc1ccc(F)c(NC(=O)Nc2ccc(-c3cccc4[nH]nc(N)c34)cc2)c1` ?
Response given: 9.41

Challenge: Entry `CN1CC[C@@H](c2c(O)cc(O)c3c(=O)cc(-c4ccccc4Cl)oc23)[C@@H]1CO` please
Response given: 6.68

* * *

Test system: SK-MEL-5 melanoma
protocol_description: NCI-60 one-dose screen, 48 h (100 = growth as untreated, 0 = no growth, -100 = all killed)
experimental_parameters: 10 µM unless noted
This is part of a sample that, as a whole, favours compounds with a hit. Of some 83,000 tested, about 20% had one in any assay.
Mark Not fulfilled for growth values under 40%, and Fulfilled for everything at or above.

See these solved cases before continuing.
1) CCc1cnn2c(NCc3ccc[n+]([O-])c3)cc(N3CCCC[C@H]3CCO)nc12 ... Not fulfilled
2) CN(c1ncccc1CNc1nc(Nc2ccc3c(c2)CC(=O)N3)ncc1C(F)(F)F)S(C)(=O)=O ... Not fulfilled

Challenge: Assess whether reported growth for `CNC(=O)c1c(C)oc2cc(Oc3ncnc4cc(OC)c(OC)cc34)ccc12` sits at 40% or higher.
Response given: Fulfilled

Challenge: What would you report for `Cc1[nH]n(C(N)=S)c(=O)c1N=Nc1ccc(S(=O)(=O)Nc2ccncn2)cc1` ?
Response given: Fulfilled

Challenge: Please answer likewise for `Cc1cc2c(F)c(Oc3ncnn4cc(OC[C@@H](C)OC(=O)[C@H](C)N)c(C)c34)ccc2[nH]1`
Response given: Fulfilled

src = PubChem BioAssay (NCI)
